# Measured On: PIP5K1A (human) (UniProt Q99755)
# Sequence (Q99755 whole entry, looked up): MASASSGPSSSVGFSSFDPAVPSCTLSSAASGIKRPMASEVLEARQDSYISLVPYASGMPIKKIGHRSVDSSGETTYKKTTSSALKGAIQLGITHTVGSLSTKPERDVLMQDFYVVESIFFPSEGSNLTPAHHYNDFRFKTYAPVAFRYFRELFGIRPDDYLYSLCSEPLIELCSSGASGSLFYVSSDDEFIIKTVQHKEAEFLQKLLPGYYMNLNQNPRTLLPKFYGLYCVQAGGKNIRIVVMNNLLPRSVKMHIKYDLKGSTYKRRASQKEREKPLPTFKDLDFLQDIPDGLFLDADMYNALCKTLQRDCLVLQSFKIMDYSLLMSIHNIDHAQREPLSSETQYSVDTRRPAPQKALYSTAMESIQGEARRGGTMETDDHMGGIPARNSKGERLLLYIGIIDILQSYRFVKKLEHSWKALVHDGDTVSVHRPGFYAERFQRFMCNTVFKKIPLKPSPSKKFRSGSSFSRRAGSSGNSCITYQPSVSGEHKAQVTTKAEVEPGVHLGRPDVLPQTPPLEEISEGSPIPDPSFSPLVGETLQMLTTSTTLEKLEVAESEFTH
# Experimental Details: KINOMEscan competition binding
# Settings: compound 10.0 µM
With a cut-off of 30%, any kinase still bound, per cent of control strictly below it is called Yes; any kinase still bound, per cent of control meeting it or above is called No.

Structure Smiles String | Label
N=C1NC(=O)/C(=C/c2ccc(-c3ccccc3O)o2)S1 | Yes
O=C1NC(=O)/C(=C/c2c[nH]c(=O)c(-c3ccc(N4CCNCC4)nc3)c2)S1 | Yes
N=C1NC(=O)/C(=C/c2ccc(-c3cnc4ccccc4c3)o2)S1 | Yes
CN1C(=O)c2ccccc2N(C)c2nc(NS(=O)(=O)c3ccc(N)cc3)ncc21 | No
COc1cc(N2CCN(C)CC2)ccc1Nc1ncc2c(n1)N(C)c1sccc1C(=O)N2C | No
COc1cc(C(=O)NC2CCN(C)CC2)ccc1Nc1ncc2c(n1)N(C1CCCC1)CCC(=O)N2C(C)C | Yes
Nc1cccc(-c2cc(/C=C3\SC(=O)NC3=O)c[nH]c2=O)c1 | Yes
CN1C(=O)c2ccccc2N(C)c2nc(Nc3ccc(N4CCC(O)CC4)cc3)ncc21 | No

---

# Measured On: MARK1 (human)
# Experimental Details: KINOMEscan competition binding
# Settings: compound 10.0 µM
The entries below are paired with their reported kinase still bound, per cent of control.
Measurement Kind: kinase still bound, per cent of control (%)

Structure Smiles String | Unit Annotation | Measured Value
COc1cc(N2CCN(C)CC2)ccc1Nc1ncc2c(n1)N(C)c1sccc1C(=O)N2C | % | 64
COc1cc(N2CCN(C)CC2)ccc1Nc1ncc2c(n1)Nc1ccccc1NC2=O | % | 100
O=C1NC(=O)/C(=C/c2c[nH]c(=O)c(-c3ccc(N4CCNCC4)nc3)c2)S1 | % | 100
COc1cc(N2CCN(C)CC2)ccc1Nc1ncc2c(n1)N(C)c1ccccc1N(C)C2=O | % | 86
CN1C(=O)c2ccccc2N(C)c2nc(NS(=O)(=O)c3ccc(N)cc3)ncc21 | % | 100
CN1C(=O)c2ccccc2N(C)c2nc(Nc3ccc(N4CCC(O)CC4)cc3)ncc21 | % | 59
CN1CCN(c2ccc(C(=O)Nc3ncc4c(n3)N(C)c3ccccc3C(=O)N4C)cc2)CC1 | % | 96
COc1cc(N2CCC(O)CC2)ccc1Nc1ncc2c(n1)N1CCc3cccc(c31)C(=O)N2C | % | 95

---

# Measured On: DCLK3 (human) (UniProt Q9C098)
# Sequence (Q9C098 whole entry, looked up): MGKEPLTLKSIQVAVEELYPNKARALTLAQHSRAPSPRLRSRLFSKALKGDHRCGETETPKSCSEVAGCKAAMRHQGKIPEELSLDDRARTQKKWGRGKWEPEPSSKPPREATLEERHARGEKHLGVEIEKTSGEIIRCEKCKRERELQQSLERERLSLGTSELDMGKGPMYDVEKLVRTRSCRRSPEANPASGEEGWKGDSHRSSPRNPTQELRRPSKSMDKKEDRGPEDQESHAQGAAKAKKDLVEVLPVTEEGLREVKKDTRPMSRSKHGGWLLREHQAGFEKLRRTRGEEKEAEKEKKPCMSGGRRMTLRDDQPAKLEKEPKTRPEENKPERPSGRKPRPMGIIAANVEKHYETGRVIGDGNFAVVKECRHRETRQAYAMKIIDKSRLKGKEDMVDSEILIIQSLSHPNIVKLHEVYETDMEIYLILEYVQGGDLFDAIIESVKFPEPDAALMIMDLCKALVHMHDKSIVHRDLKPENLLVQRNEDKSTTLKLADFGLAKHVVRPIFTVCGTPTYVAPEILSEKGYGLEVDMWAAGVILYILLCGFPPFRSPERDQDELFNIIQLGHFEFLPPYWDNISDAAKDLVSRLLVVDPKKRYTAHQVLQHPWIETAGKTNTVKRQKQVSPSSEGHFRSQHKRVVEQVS
# Experimental Details: KINOMEscan competition binding
# Settings: compound 10.0 µM
Listed molecules paired with reported kinase still bound, per cent of control
Measurement Kind: kinase still bound, per cent of control (%)

Structure Smiles String | Measured On | Unit Annotation | Measured Value
N=C1NC(=O)/C(=C/c2ccc(-c3ccc(C(N)=O)cc3O)o2)S1 | DCLK3 (human) (UniProt Q9C098) | % | 2.7
CC(C)Oc1cc(N2CCN(C)CC2)ccc1Nc1ncc2c(n1)N(C)c1ccccc1C(=O)N2 | DCLK3 (human) (UniProt Q9C098) | % | 8.1
CN1C(=O)c2ccccc2N(C)c2nc(NS(=O)(=O)c3ccc(N)cc3)ncc21 | DCLK3 (human) (UniProt Q9C098) | % | 100
COc1cc(N2CCC(O)CC2)ccc1Nc1ncc2c(n1)N1CCc3cccc(c31)C(=O)N2C | DCLK3 (human) (UniProt Q9C098) | % | 84
COc1cc(N2CCN(C)CC2)ccc1Nc1ncc2c(n1)Nc1ccccc1NC2=O | DCLK3 (human) (UniProt Q9C098) | % | 98
COc1cc(N2CCN(C)CC2)ccc1Nc1ncc2c(n1)N(C)c1ccccc1N(C)C2=O | DCLK3 (human) (UniProt Q9C098) | % | 100
O=C1NC(=O)/C(=C/c2c[nH]c(=O)c(-c3ccc(N4CCNCC4)nc3)c2)S1 | DCLK3 (human) (UniProt Q9C098) | % | 2
N=C1NC(=O)/C(=C/c2ccc(-c3csc4ccccc34)o2)S1 | DCLK3 (human) (UniProt Q9C098) | % | 26
CN1C(=O)[C@H]2CCC[C@H]2N(C2CCCC2)c2nc(Nc3ccc(C(N)=O)cc3)ncc21 | DCLK3 (human) (UniProt Q9C098) | % | 1.4

Where do the numbers come from? From the kinase profiling compilation of Christmann-Franck et al. (2016).
